Each recorded value in this set is attributed to patent US20240018252A1.

Recorded measurements of koff, one per entry
- measured_on: human CD3 (huCD3ed) (human) (UniProt P07766)
- Sequence (P07766 23-126, chain 1 of 2): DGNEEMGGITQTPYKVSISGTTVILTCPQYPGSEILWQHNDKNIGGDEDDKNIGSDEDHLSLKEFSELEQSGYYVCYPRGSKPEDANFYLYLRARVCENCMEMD
- Sequence (P04234 22-105, chain 2 of 2, further chain): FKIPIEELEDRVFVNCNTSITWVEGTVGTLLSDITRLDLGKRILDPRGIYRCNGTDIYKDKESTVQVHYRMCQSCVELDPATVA
- procedure_details: Biacore SPR, bispecific hIgG2dA format, 37 C; CD3 antigen not given
Express it in s⁻¹; write the number only.

>>> quantitative_result("h25A8-C8_Ep (bispecific antibody, part only; not given: anti-EpCam arm, constant regions, V domains shown, not shown: another chain or arm of the molecule; a dimerising Fc or GST; small tags and cut ends) VH: EVQLVESGGGLVKPGGSLRLSCAASGFTFNTYAMNWVRQAPGKGLEWVGRIRSKINNYATYYAESVKGRFTISRDDSKNTLYLQMNSLKTEDTAVYYCVRHETLRSGISWFASWGQGTLVTVSS VL: QAVVTQEPSLTVSPGGTVTLTCRSSTGAVTTSNYANWVQQKPGQAPRGLIGGTNTRAPGTPARFSGSLLGGKAALTLSGAQPEDEAEYYCVLWYNNHWVFGGGTKLTVL")
0.0301

Record summary for h25A8-B12_Ep (bispecific antibody, part only; not given: anti-EpCam arm, constant regions, V domains shown, not shown: another chain or arm of the molecule; a dimerising Fc or GST; small tags and cut ends) VH: EVQLVESGGGLVKPGGSLRLSCAASGFTFSTYAMNWVRQAPGKGLEWVGRIRSKINNYATYYAESVKGRFTISRDDSKNTLYLQMNSLKTEDTAVYYCVRHETLRSGISWFASWGQGTLVTVSS VL: QAVVTQEPSLTVSPGGTVTLTCRASTGAVTTSNYANWVQQKPGQAPRGLIGGTNTRAPGTPARFSGSLLGGKAALTLSGAQPEDEAEYYCVLWYNNHWVFGGGTKLTVL : reported koff = 0.0241

Record summary for h25A8-B8_Ep (bispecific antibody, part only; not given: anti-EpCam arm, constant regions, V domains shown, not shown: another chain or arm of the molecule; a dimerising Fc or GST; small tags and cut ends) VH: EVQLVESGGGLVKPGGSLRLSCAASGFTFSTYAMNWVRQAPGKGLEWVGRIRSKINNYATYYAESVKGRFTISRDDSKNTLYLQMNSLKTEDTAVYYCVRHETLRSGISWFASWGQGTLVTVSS VL: QAVVTQEPSLTVSPGGTVTLTCRSSTGAVTTSNYANWVQQKPGQAPRGLIGGTNTRAPGTPARFSGSLLGGKAALTLSGAQPEDEAEYYCVLWYNNHWVFGGGTKLTVL : reported koff = 0.0222
